Every entry's value here was drawn from ChEMBL document CHEMBL1201862.

Test system: U-251
assay summary: NCI tumour cell line growth inhibition, 48 h
Calls of active or inactive are those of the source. Rule as the data show it: active = GI50 up to about 1.1 µM and inactive = higher.
experimental readout: GI50

                                    compound  experimental_readout            obs_value
 0  COc1ccc(/C(CC2OC(=O)c3ccccc32)=N\NC(N)=O)cc1 (configuration not stated)                  GI50  > 100 µM (inactive)
 1                  C=CCNC(=O)ON1C(=O)CCC1=O                  GI50  > 100 µM (inactive)
 2  C/C(C=O)=C1\C(O)C[C@]1(C)C1CC(C)(C)CC1O (some centres not stated)                  GI50  > 100 µM (inactive)
 3         Cc1cc2nc3c(C)c4ccccc4c(C)n3c2cc1C                  GI50   3.33 µM (inactive)
 4  O=C(O)/C(Cl)=C(\Cl)C(=O)NC1C2CC3CC(C2)CC1C3 (configuration not stated)                  GI50  > 100 µM (inactive)
 5  CCN(CC)CC/N=c1\c2cc(OC)ccc2[nH]c2c([N+](=O)[O-])ccc(NCCN(CC)CC)c12                  GI50   1.24 µM (inactive)
 6  Cc1ccc(S(=O)(=O)NNC2Oc3cc4c(cc3C(c3ccccc3O)C2C)OCO4)cc1 (configuration not stated)                  GI50   10.3 µM (inactive)
 7  Cc1ccc(C2=C(c3ccc(C)cc3)C(c3ccc(C)cc3)=C(c3ccc(C)cc3)C2=O)cc1                  GI50  > 100 µM (inactive)
 8          N#C/C(=C\c1ccccc1F)C(=O)c1ccccc1                  GI50  > 100 µM (inactive)
 9  CC(C)(C)OC(=O)N(O)[C@@H]1C=C[C@H](n2cnc3c(N)ncnc32)C1                  GI50  > 100 µM (inactive)
10  C=CC(C)(C)c1cc([C@@H]2COc3cc(O)ccc3C2=O)c(O)c(OC)c1OC                  GI50   13.5 µM (inactive)
11  O=C1N[C@@H]([C@H](CCCCCO)OC(=O)c2ccccc2)CO1                  GI50  > 100 µM (inactive)
12    CC(C)(C)NC(=O)NC12CC3CC(CC(F)(C3)C1)C2                  GI50  > 100 µM (inactive)
13  COc1ccc2c(c1OC(C)=O)C1=CC(=O)CCC13CCNC3C2 (configuration not stated)                  GI50  > 100 µM (inactive)
14  c1ccc(CN2CCC3(CC2)SSC2(CCN(Cc4ccccc4)CC2)SS3)cc1                  GI50  > 100 µM (inactive)
15                               OCCCc1cnco1                  GI50  > 100 µM (inactive)
16  COc1ccc(/C=C2\NC(=S)N(CN3CCOCC3)C2=O)cc1                  GI50  > 100 µM (inactive)

----------
System: COLO 205
assay summary: NCI tumour cell line growth inhibition, 48 h
Calls of active or inactive are those of the source. No stated cut-off is given here; in the data, active = GI50 up to about 1.1 µM and inactive = higher. Positions of bridges follow the written chain, without caps; N, C: chain ends. Non-standard residues stand in square brackets, D forms with d. Residues, ends and D or L forms follow the SMILES beside them. *: point of attachment. Cbz = O=C(OCc1ccccc1)*; Aib = CC(C)(N)C(=O)O; OBn = c1ccc(CO*)cc1; βAla = NCCC(=O)O
Reported GI50 by item:

molecule	GI50
Nc1c(C(=O)Nc2ccc(C3=NCCN3)cc2)cccc1C(=O)Nc1ccc(C2=NCCN2)cc1	> 100 µM (inactive)
O=S(=O)(Cc1cnc(O)nc1O)Cc1cnc(O)nc1O	> 100 µM (inactive)
CCOP(=O)(OCC)C(Nc1ccc(F)cc1)c1ccccc1 (stereo not given)	> 100 µM (inactive)
C=C1C(=O)OC2C1CCC(C)C1(O)C=CC(=O)C21C (stereo not given)	> 10 µM (inactive)
CCCCCCCCCCCCOP(=O)(O)OP(=O)(O)OCC1OC(n2ccc(N)nc2=O)CC1O (stereo not given)	> 100 µM (inactive)
N#CC(C(=O)/C(=N\NC(N)=O)C(C#N)c1ccc(Cl)cc1)c1ccc(Cl)cc1 (stereo not given)	> 100 µM (inactive)
O=C(O)/C(Cl)=C(\Cl)C(=O)NC1C2CC3CC(C2)CC1C3 (stereo not given)	> 100 µM (inactive)
CC(C)(C)c1cc(/C=C(\C#N)C(=O)NCCO)cc(C(C)(C)C)c1O	20.5 µM (inactive)
COc1ccc(/C=C2\N=C3NC(=O)C(N4CCOCC4)=C(N)N3C2=O)cc1	> 100 µM (inactive)
CCO/N=C(/CC)c1ccc(Br)s1	> 100 µM (inactive)
CCCCCCCCCCCCCCCCOCC(COP(=O)([O-])OCC[N+](C)(C)C)OCCCCCCCCCCCCCCCC (stereo not given)	> 100 µM (inactive)
CC(=O)O[C@H]1CCC2[C@@H]3CCC4C(=O)c5oncc5C[C@]4(C)C3CC[C@@]21C (stereo not given in full)	> 100 µM (inactive)
N#Cc1c(-c2ccc(Cl)cc2)c2c(n(C3OC(CO)C(O)C(O)C3O)c1=S)CCCC2 (stereo not given)	38.3 µM (inactive)
CC(=O)C1=C(C)N2C(=NC3=C(CCc4ccccc43)C2c2ccc(F)cc2)S1 (stereo not given)	58.1 µM (inactive)
COc1ccc2cc(CNCCCCCCNC(=O)Nc3cccc4ccccc34)ccc2c1	> 100 µM (inactive)
CC1(C)NC(=O)C(NC(=O)C(CC(=O)OCc2ccccc2)NC(=O)OCc2ccccc2)CCCCNC(=O)CCNC1=O (stereo not given) (Cbz-D(OBn)K[Aib][βAla]; lactam 2-C; configuration not given here)	> 100 µM (inactive)
CC(=O)NN1C(=O)C(Cc2ccccc2)c2ccccc21 (stereo not given)	> 100 µM (inactive)
O=C1Nc2ccccc2/C1=N/N1C(=O)/C(=C/c2ccccc2S)N=C1c1ccccc1	76 µM (inactive)
Cc1cc(CN(Cc2ccccc2)Cc2nc3ccccc3[nH]2)c(O)c(CN(Cc2nc3ccccc3[nH]2)Cc2nc3ccccc3[nH]2)c1	19.8 µM (inactive)
CC(C(=O)N1C(=O)N(C(=O)[C@H](C)C(O)c2ccccc2)[C@H](c2ccccc2)[C@H]1c1ccccc1)[C@@H](O)c1ccccc1 (stereo not given in full)	18.7 µM (inactive)
Cc1sc(N/N=C2\C(=O)Nc3ccccc32)nc1-c1ccccc1	13.4 µM (inactive)
COc1ccc(OC)c(NC(=O)C(=O)CC(=O)c2sc(-n3nc(-c4ccccc4)cc3-c3ccccc3)nc2C)c1	> 100 µM (inactive)
CC1(C)N/C(=C\[N+](=O)[O-])C(C)(C)N1O	> 10 µM (inactive)
O=C1C2CCCC2N1Cc1ccccc1 (stereo not given)	> 100 µM (inactive)
CC1C(NNC(N)=O)Oc2cc3c(cc2C1c1ccccc1O)OCO3 (stereo not given)	> 10 µM (inactive)
O=c1[nH]c2ccc(CC(=S)N3CCOCC3)cc2s1	> 100 µM (inactive)
CC(O)c1ccc(C(O)/C(=N\NC(=O)c2ccncc2)c2nc3ccc([N+](=O)[O-])cc3nc2O)cc1 (stereo not given)	> 100 µM (inactive)
COc1ccc(OC)c(C2CCc3cnc4nc(N)nc(N)c4c3C2)c1 (stereo not given)	> 100 µM (inactive)
CC(=O)O[C@@H](c1nccn1Cc1ccccc1)[C@H]1OC(C)(C)O[C@@H]1[C@H]1COC(C)(C)O1	> 100 µM (inactive)
O=C(Nc1ccc(F)cc1)c1cc2ccc(O)cc2o/c1=N\c1ccccc1F	> 100 µM (inactive)
